# Tested Target: Glutamate receptor ionotropic, NMDA 2B (Homo sapiens, UniProt Q05586+Q13224)
# Sequence (Q13224 whole entry, one chain of several): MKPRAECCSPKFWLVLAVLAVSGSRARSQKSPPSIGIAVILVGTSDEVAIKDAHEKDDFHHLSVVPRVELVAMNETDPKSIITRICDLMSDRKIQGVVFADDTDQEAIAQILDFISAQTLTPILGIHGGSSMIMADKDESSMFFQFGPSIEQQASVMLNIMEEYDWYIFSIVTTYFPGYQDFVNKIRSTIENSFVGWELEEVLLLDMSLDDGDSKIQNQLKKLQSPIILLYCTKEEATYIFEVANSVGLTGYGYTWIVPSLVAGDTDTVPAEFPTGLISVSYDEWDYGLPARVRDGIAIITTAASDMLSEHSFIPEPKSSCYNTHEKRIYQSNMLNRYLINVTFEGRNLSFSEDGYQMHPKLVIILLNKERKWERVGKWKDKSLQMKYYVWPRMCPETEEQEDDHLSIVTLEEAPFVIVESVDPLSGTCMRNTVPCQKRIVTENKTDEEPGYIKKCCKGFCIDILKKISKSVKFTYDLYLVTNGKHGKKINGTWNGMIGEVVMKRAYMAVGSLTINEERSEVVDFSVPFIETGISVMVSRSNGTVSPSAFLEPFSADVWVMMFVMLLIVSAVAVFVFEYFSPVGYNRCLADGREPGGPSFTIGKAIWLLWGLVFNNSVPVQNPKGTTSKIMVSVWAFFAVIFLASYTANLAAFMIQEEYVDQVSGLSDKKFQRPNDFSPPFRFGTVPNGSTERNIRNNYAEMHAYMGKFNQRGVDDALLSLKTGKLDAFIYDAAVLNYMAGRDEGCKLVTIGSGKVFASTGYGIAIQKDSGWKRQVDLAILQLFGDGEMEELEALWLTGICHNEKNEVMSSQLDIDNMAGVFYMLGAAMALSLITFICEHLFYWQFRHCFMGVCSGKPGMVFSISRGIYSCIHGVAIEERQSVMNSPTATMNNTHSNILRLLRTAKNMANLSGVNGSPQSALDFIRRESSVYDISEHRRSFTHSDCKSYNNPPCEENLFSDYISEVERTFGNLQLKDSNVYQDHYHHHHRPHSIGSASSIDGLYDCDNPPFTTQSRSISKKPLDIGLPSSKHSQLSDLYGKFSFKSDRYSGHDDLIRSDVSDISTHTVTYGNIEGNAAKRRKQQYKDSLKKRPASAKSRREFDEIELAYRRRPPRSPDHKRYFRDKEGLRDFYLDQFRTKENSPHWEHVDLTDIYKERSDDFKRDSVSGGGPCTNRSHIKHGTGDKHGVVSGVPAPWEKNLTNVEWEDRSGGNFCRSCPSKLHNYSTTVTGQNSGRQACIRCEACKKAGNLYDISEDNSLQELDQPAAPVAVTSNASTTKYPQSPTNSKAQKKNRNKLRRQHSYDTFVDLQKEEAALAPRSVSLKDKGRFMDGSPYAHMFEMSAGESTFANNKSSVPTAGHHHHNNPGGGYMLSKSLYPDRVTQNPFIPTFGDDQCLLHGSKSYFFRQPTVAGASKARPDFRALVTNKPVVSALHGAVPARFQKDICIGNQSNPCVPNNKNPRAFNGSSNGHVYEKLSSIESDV
# Method: Antagonistic activity against NR1A/2B receptor in frog oocytes
# Format: functional, cell-based, Oocyte
Quantity: IC50 (µM)

Example cases with answers are listed next.
cpd_smiles=Oc1ccc(C#CCCN2CCC(Cc3ccccc3)CC2)cc1 quantity=IC50 observed_measurement=0.1
cpd_smiles=O=[N+]([O-])c1ccc2[nH]c(SCCN3CCC(Cc4ccccc4)CC3)nc2c1 quantity=IC50 observed_measurement=7.4
cpd_smiles=Nc1nnc(SCCN2CCC(Cc3ccccc3)CC2)s1 quantity=IC50 observed_measurement=0.21
cpd_smiles=Oc1ccc(SCCN2CCC(Cc3ccccc3)CC2)cc1 quantity=IC50 observed_measurement=0.1
cpd_smiles=c1ccc(CC2CCN(CCCSc3ccccc3)CC2)cc1 quantity=IC50 observed_measurement=4.3
cpd_smiles=Nc1nnc(SCCCN2CCC(Cc3ccccc3)CC2)s1 quantity=IC50 observed_measurement=0.56
cpd_smiles=Nc1n[nH]c(SCCCN2CCC(Cc3ccccc3)CC2)n1 quantity=IC50 observed_measurement=0.63
cpd_smiles=c1ccc(CC2CCN(CCCSc3ncc[nH]3)CC2)cc1 quantity=IC50 observed_measurement=0.61
cpd_smiles=Nc1nnc(SCCN2CCC(Cc3ccccc3)CC2)[nH]1 quantity=IC50 observed_measurement=0.035
cpd_smiles=c1ccc(CC2CCN(CCSc3ccccc3)CC2)cc1 quantity=IC50 observed_measurement=0.93

1. c1ccc(CC2CCN(CCSc3ncc[nH]3)CC2)cc1
2. Cc1n[nH]c(SCCCN2CCC(Cc3ccccc3)CC2)n1
3. c1ccc(CC2CCN(CCCSc3nc4ncccc4[nH]3)CC2)cc1
Provide the items ranked by increasing IC50. List the labels in the requested order.
1, 2, 3
(1: 0.07 µM, 2: 1 µM, 3: 1.6 µM)

a. c1ccc(CC2CCN(CCCSc3nc4ccccc4[nH]3)CC2)cc1
b. c1ccc(CC2CCN(CCSc3nc[nH]n3)CC2)cc1
Lab log: flag the item ( a or b ) with the smaller IC50 figure. Pick one; state its label.
b
(b: 0.13 µM, a: 1 µM)

A. O=[N+]([O-])c1ccc2nc(SCCCN3CCC(Cc4ccccc4)CC3)[nH]c2c1
B. c1ccc(CC2CCN(CCCSc3nnc[nH]3)CC2)cc1
Min IC50? A | B Select an item and report its label.
B
(B: 0.63 µM, A: 0.91 µM)

1. Cc1nnc(SCCN2CCC(Cc3ccccc3)CC2)s1
2. c1ccc(CC2CCN(CCSc3nc4ncccc4[nH]3)CC2)cc1
3. Cc1n[nH]c(SCCN2CCC(Cc3ccccc3)CC2)n1
4. c1ccc(CC2CCN(CCSc3nc4ccccc4[nH]3)CC2)cc1
Would you mind ranking these compounds by ascending IC50? Answer format: the labels, ordered as requested.
3, 2, 4, 1
(3: 0.15 µM, 2: 0.24 µM, 4: 0.38 µM, 1: 4.8 µM)
